Target: human cathepsin L (Homo sapiens (Human), UniProt P07711)
Sequence (P07711 114-333): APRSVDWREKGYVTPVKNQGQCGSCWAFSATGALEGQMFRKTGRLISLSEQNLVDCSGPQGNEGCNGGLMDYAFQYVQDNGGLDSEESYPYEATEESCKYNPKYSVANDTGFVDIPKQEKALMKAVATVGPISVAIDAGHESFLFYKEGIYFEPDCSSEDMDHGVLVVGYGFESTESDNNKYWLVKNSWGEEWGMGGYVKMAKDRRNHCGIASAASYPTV
Test: Human cathepsin L inhibition, Z-FR-AMC assay
Type: biochemical
Conditions: pH 5.5, 25° C., 10% DMSO; read-out: Ki* Human Cathepsin L
Note to self: Ki under 0.9 µM means Met, ties and anything higher get Not met.

- O=C(N[C@@H](Cc1ccccc1)C(=O)N[C@H](/C=C/c1ccccn1)Cc1ccccc1)OCc1ccccc1: Not met
- C[n+]1ccccc1/C=C/[C@H](Cc1ccccc1)NC(=O)[C@H](Cc1ccccc1)NC(=O)OCc1ccccc1.[I-]: Met
- O=C(N[C@@H](Cc1ccccc1)C(=O)N[C@H](/C=C/c1ncccn1)Cc1ccccc1)OCc1ccccc1: Not met
- O=C(N[C@@H](Cc1ccccc1)C(=O)N[C@H](/C=C/c1ccccn1)CCc1ccccc1)OCc1ccccc1: Not met

====

Target: UniProtKB P0DTD1
Assay: biochemical
Type: biochemical
Conditions: read-out: Ki* 3CLpro
Non-standard residues stand in square brackets, D forms with d. Residues, ends and D or L forms follow the SMILES beside them. *: point of attachment. Phe(2-OMe) = COc1ccccc1C[C@H](N)C(=O)O; Cbz = O=C(OCc1ccccc1)*
Catalogue of Ki readings, one per entry.
OBSERVATION_TYPE: Ki

- COc1ccccc1C[C@@H](C=O)NC(=O)[C@H](Cc1ccccc1)NC(=O)OCc1ccccc1 [Compound 29] (Cbz-Phe-[Phe(2-OMe)]-aldehyde): > 10 µM
- COc1ccc2c(c1)CC(NC(=O)C(Cc1ccccc1)NC(=O)OCc1ccccc1)C(O)O2 (centres unmarked): > 10 µM

====

Molecular target: cruzain (Trypanosoma cruzi)
Sequence (P25779 123-467 limits assumed): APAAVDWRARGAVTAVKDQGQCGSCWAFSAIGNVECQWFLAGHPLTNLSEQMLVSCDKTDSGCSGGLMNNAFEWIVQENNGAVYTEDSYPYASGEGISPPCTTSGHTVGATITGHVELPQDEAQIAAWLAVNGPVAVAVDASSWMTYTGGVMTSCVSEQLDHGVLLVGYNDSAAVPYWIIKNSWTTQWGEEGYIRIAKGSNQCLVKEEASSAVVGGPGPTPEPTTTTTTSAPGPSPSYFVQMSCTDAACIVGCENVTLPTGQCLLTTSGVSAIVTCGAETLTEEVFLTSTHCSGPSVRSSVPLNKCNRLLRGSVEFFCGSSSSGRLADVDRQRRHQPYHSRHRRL
Assay: biochemical
Settings: apparent tight-binding inhibition constant; 25° C., pH 7.5; read-out: Ki*
Catalogue of Ki readings, one per entry.
OBSERVATION_TYPE: Ki (nM)

- O=C(N[C@@H](Cc1ccccc1)C(=O)N[C@H](/C=C/c1ccncn1)Cc1ccccc1)OCc1ccccc1: 1140
- C[n+]1ccccc1/C=C/[C@H](Cc1ccccc1)NC(=O)[C@H](Cc1ccccc1)NC(=O)OCc1ccccc1.[I-]: 280
- NCCCC[C@@H](/C=C/c1ccccn1)NC(=O)[C@H](Cc1ccccc1)NC(=O)OCc1ccccc1: 870
- CN1CCN(C(=O)N[C@@H](Cc2ccccc2)C(=O)N[C@H](/C=C/c2ncccn2)CCc2ccccc2)CC1: 2200

====

Molecular target: human cathepsin B (Homo sapiens (Human))
Assay: Human cathepsin B inhibition, Z-FR-AMC assay
Assay type: biochemical
Details: pH 5.5, 25° C., 10% DMSO; read-out: Ki* Human Cathepsin B
pKi: −log10 of the molar value.
// condition not met strictly below 5 in pKi; condition met otherwise

• O=C(N[C@@H](Cc1ccccc1)C(=O)N[C@H](/C=C/c1ncccn1)Cc1ccccc1)OCc1ccccc1 = condition not met
• C[n+]1ccccc1/C=C/[C@H](Cc1ccccc1)NC(=O)[C@H](Cc1ccccc1)NC(=O)OCc1ccccc1.[I-] = condition not met
• O=C(N[C@@H](Cc1ccccc1)C(=O)N[C@H](/C=C/c1ccccn1)Cc1ccccc1)OCc1ccccc1 = condition not met
• C[n+]1ccccc1/C=C/[C@H](CCc1ccccc1)NC(=O)[C@H](Cc1ccccc1)NC(=O)OCc1ccccc1 = condition not met
• O=C(N[C@@H](Cc1ccccc1)C(=O)N[C@H](/C=C/c1ccccn1)CCc1ccccc1)OCc1ccccc1 = condition met

====

Catalogue of EC50 readings, one per entry.
Test system: T. cruzi (Ca-I/72) in C2C12 murine cardiomyoblasts
Experiment: T. cruzi-infected murine cardiomyoblasts (C2C12)
Format: cell-based, Trypanosoma cruzi
Conditions: Trypanosoma cruzi, C2C12, C2C12 murine cardiomyoblasts; read-out: EC50 T. cruzi-infected cardiomyoblasts
OBSERVATION_TYPE: EC50

• CN1CCN(C(=O)N[C@@H](Cc2ccccc2)C(=O)N[C@H](/C=C/c2ncccn2)CCc2ccccc2)CC1 = 5 to 8 µM
• O=C(N[C@@H](Cc1ccccc1)C(=O)N[C@H](/C=C/c1ccccn1)Cc1ccccc1)OCc1ccccc1 = 5 to 8 µM
• C[C@@H](/C=C/c1ncccn1)NC(=O)[C@H](Cc1ccccc1)NC(=O)OCc1ccccc1 = 5 to 8 µM
• Cc1ccc2c(c1)C[C@H](NC(=O)[C@H](Cc1ccccc1)NC(=O)OCc1ccccc1)C(O)O2 (stereo partly shown) = 5.7 µM
• O=C(N[C@@H](Cc1ccccc1)C(=O)N[C@H](/C=C/c1ccccn1)CCc1ccccc1)OCc1ccccc1 = 5 to 10 µM
• NCCCC[C@@H](/C=C/c1ccccn1)NC(=O)[C@H](Cc1ccccc1)NC(=O)OCc1ccccc1 = 5 to 8 µM
• C[n+]1ccccc1/C=C/[C@H](Cc1ccccc1)NC(=O)[C@H](Cc1ccccc1)NC(=O)OCc1ccccc1.[I-] = 5 to 8 µM

====

Molecular target: UniProt:P07858
Assay: Human cathepsin B inhibition, Z-FR-AMC assay
Format: biochemical
Conditions: pH 5.5, 25° C.; read-out: Ki* hCatB
OBSERVATION_TYPE: Ki (µM)

- Cc1ccc2c(c1)C[C@H](NC(=O)[C@H](Cc1ccccc1)NC(=O)OCc1ccccc1)C(O)O2 (stereo partly shown): 6.1
- CN1CCN(C(=O)NC(Cc2ccccc2)C(=O)NC2Cc3ccccc3OC2O)CC1 (stereo not shown): 1.27
- COC(=O)c1ccc2c(c1)CC(NC(=O)C(Cc1ccccc1)NC(=O)OCc1ccccc1)C(O)O2 (stereo not shown): 0.67
- O=C(N[C@@H](Cc1ccccc1)C(=O)N[C@H]1Cc2ccccc2OC1O)OCc1ccccc1 (stereo partly shown): 4.5
- O=C(NC(Cc1ccccc1)C(=O)NC1Cc2cc(F)ccc2OC1O)OCc1ccccc1 (stereo not shown): 2.3
- O=C(NC(Cc1ccccc1)C(=O)NC1Cc2cc(Cl)ccc2OC1O)OCc1ccccc1 (stereo not shown): 1.4
- COc1ccc2c(c1)CC(NC(=O)C(Cc1ccccc1)NC(=O)OCc1ccccc1)C(O)O2 (stereo not shown): 5.5

====

System: human dermal fibroblasts
Test: Human cell toxicity, resazurin viability
Format: cell-based
OBSERVATION_TYPE: CC50

* C[n+]1ccccc1/C=C/[C@H](CCc1ccccc1)NC(=O)[C@H](Cc1ccccc1)NC(=O)OCc1ccccc1 | > 100 µM

====

Assay: Thiolation of inhibitors with glutathione, LCMS
Type: physicochemical
Details: 1 mM glutathione, 0.5 mM compound, Tris pH 8.0, 10% DMSO, room temperature
OBSERVATION_TYPE: Rate of Thiolation, k

- O=C(N[C@@H](Cc1ccccc1)C(=O)N[C@H](/C=C/c1ncccn1)Cc1ccccc1)OCc1ccccc1 [Compound 7]: Negligible
- O=C(N[C@@H](Cc1ccccc1)C(=O)N[C@H](/C=C/c1nccs1)Cc1ccccc1)OCc1ccccc1 [Compound 25]: Negligible
- O=C(N[C@@H](Cc1ccccc1)C(=O)N[C@H](/C=C/c1ccccn1)Cc1ccccc1)OCc1ccccc1 [Compound 11]: Negligible

Ref: patent US20240150396A1
